- tgt: EGFR del19/T790M/C797S (Homo sapiens, UniProt P00533, C797S/DEL746-750/T790M)
- Sequence (P00533 with tags, fused parts or gaps DEL746-750/T790M/C797S): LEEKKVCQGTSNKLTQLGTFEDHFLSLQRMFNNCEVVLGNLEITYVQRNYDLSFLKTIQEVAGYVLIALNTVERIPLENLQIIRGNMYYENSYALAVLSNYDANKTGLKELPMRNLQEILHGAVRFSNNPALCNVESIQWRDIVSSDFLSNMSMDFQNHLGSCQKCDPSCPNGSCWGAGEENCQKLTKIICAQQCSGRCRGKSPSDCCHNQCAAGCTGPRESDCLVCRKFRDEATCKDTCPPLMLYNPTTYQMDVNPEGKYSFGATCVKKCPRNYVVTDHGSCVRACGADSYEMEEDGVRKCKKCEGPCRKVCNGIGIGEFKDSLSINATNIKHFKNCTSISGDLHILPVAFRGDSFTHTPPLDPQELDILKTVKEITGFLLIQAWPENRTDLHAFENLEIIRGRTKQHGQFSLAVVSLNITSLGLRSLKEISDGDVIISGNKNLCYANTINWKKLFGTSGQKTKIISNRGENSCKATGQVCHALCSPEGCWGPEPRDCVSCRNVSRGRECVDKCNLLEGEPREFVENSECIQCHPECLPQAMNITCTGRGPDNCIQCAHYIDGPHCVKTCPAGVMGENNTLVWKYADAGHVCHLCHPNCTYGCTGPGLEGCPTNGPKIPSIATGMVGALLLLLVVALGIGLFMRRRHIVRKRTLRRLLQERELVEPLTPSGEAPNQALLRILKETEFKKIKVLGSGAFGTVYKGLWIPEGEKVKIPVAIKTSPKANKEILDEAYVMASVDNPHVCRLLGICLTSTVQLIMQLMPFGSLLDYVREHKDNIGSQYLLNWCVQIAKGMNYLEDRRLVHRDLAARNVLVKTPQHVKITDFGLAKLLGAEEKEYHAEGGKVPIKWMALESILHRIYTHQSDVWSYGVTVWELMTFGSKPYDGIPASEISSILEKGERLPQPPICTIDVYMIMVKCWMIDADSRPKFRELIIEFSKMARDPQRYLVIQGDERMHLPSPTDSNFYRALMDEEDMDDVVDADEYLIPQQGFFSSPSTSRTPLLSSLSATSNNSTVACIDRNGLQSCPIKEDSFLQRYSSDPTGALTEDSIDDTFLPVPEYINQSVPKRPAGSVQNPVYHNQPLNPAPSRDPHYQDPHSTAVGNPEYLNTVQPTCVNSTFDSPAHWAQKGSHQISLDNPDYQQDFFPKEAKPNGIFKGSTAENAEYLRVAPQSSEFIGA
- testProtocol: Biochemical EGFR kinase assay (Lance Ultra TR-FRET), triple mutant del19/T790M/C797S
- appliedConditions: Km ATP; read-out: IC50 del19/T790M/C797S (nM) Km ATP

compound: O=C1NCCCC1Nc1cc(Nc2ccnc(-c3cnn(S(=O)(=O)C4CC4)c3)n2)ncc1-c1ccn(C(F)F)n1 (stereo not drawn)
IC50, nM: 0.5
//
compound: CC(C)(CO)Cn1cc(-c2nccc(Nc3cc(N[C@H]4CC[C@@](C)(O)CC4)c(-c4ccn(C(F)F)n4)cn3)n2)cn1
IC50, nM: 3.9
//
compound: CN(C)C[C@H]1CC[C@H](CNc2cc(Nc3ccnc(-c4cnn(S(=O)(=O)C5CC5)c4)n3)ncc2-c2csc(C(F)(F)F)n2)CC1
IC50, nM: 0.3
//
compound: Cn1ccc(-c2cnc(Nc3ccnc(-c4cnn(S(=O)(=O)C5CC5)c4)n3)cc2NC2CCC(F)(CO)CC2)n1 (stereo not drawn)
IC50, nM: 0.3
//
compound: CN(C)C(=O)C[C@H]1CC[C@@H](Nc2cc(Nc3ccnc(-c4cnn(S(=O)(=O)C5CC5)c4)n3)ncc2-c2ccn(C)n2)CC1
IC50, nM: 0.3
//
compound: C[C@]1(O)CC[C@@H](Nc2cc(Nc3ccnc(-c4cnc5c(c4)CCCO5)n3)ncc2-c2ccn(C(F)F)n2)CC1
IC50, nM: 0.3

* * *

- tgt: EGFR wildtype (WT) (Homo sapiens, UniProt P00533)
- Sequence (P00533 25-1210): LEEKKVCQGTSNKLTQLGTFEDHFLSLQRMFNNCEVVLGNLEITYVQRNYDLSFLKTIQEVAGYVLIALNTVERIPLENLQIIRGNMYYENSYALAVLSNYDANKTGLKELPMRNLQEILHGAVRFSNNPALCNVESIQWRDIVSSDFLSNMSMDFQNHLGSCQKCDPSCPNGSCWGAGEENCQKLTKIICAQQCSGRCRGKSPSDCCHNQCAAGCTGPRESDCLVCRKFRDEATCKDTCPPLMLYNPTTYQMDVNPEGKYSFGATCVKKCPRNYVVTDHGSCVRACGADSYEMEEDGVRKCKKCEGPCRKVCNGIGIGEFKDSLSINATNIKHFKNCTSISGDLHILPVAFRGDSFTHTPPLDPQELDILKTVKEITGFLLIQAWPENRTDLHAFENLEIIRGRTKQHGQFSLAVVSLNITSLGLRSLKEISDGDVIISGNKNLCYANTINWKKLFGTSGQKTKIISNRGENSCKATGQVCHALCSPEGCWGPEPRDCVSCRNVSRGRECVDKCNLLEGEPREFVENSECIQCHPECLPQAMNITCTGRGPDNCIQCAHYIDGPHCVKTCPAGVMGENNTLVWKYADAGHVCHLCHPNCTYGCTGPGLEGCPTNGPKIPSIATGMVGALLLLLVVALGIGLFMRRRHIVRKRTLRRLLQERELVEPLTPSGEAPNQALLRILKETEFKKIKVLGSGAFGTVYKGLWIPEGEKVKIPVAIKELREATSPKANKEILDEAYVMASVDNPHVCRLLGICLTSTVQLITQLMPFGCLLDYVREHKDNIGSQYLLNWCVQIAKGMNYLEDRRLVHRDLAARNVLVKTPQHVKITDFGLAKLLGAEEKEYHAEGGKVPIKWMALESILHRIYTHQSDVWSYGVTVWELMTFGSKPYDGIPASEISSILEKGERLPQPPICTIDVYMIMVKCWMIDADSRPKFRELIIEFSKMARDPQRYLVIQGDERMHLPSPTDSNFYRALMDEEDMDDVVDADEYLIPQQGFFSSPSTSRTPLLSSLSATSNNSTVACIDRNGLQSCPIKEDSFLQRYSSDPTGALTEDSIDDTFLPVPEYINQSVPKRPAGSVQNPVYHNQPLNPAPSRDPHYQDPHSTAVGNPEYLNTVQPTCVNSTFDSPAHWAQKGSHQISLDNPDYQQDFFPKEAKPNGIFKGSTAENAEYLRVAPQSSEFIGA
- testProtocol: Biochemical EGFR kinase assay (Lance Ultra TR-FRET), wildtype
- appliedConditions: Km ATP; read-out: IC50 WT, Km ATP

compound: Cc1nn(CC(F)(F)F)cc1-c1nccc(Nc2cc(N[C@H]3CC[C@@](C)(O)CC3)c(-c3ccn(C(F)F)n3)nn2)n1 [Example 375]
IC50: 2290 nM
//
compound: Cc1nn(CC(F)(F)F)cc1-c1cc(Nc2ncc(-c3cc(C(F)(F)F)n(C)n3)c(N[C@H]3CC[C@@](C)(O)CC3)n2)ccn1 [Example 369]
IC50: 72.7 nM
//
compound: CC1(O)CCC(Nc2cc(Nc3ccnc(N4CC(CO)C(F)(F)C4)n3)ncc2-c2ccn(C(F)F)n2)CC1 (stereo not shown) [Example 346]
IC50: 335 nM
//
compound: CC1(O)CCC(Nc2cc(Nc3ccnc(N4CC(O)C(F)(F)C4)n3)ncc2-c2ccn(C(F)F)n2)CC1 (stereo not shown) [Example 349]
IC50: 189 nM

* * *

- tgt: EGFR del19/C797S (Homo sapiens, UniProt P00533, C797S/DEL746-750)
- Sequence (P00533 with tags, fused parts or gaps DEL746-750/C797S): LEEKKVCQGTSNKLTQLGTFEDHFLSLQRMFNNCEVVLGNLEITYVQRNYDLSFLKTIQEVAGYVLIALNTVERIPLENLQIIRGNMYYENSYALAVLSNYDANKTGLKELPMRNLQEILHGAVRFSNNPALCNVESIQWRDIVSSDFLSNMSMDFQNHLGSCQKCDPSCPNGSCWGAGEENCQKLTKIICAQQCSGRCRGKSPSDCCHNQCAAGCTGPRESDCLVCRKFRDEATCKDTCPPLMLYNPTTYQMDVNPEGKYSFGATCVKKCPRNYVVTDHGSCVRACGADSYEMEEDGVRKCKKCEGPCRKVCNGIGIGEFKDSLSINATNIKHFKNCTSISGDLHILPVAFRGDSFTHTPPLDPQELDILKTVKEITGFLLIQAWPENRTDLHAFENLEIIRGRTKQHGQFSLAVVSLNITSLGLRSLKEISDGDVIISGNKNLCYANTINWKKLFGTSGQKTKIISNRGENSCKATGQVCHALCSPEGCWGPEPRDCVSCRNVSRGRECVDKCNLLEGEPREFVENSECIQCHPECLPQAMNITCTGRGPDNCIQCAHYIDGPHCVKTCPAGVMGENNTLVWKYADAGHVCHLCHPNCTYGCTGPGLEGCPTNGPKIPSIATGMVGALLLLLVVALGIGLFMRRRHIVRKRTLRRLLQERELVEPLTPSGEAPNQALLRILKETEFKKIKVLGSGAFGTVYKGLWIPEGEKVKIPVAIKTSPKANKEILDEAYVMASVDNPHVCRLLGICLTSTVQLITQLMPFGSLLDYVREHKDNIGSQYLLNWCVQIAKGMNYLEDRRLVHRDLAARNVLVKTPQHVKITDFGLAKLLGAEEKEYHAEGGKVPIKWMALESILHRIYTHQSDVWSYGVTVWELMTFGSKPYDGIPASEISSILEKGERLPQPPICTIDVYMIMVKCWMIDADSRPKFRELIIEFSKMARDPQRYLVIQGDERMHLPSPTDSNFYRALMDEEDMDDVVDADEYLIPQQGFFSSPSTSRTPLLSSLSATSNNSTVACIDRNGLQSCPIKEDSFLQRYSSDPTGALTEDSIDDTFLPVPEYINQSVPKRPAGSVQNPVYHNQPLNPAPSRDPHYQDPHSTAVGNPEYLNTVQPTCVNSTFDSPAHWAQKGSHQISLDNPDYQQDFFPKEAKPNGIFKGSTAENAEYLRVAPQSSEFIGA
- testProtocol: Biochemical EGFR kinase assay (Lance Ultra TR-FRET), double mutant del19/C797S
- appliedConditions: Km ATP; read-out: IC50 del19/C797S (nM) Km ATP
propertyLabel: IC50

compound: Cn1nc(-c2cnc(Nc3ccnc(-c4cnn(CC(F)(F)F)c4)n3)cc2N[C@H]2CC[C@@](C)(O)CC2)cc1C(F)(F)F [Example 329]
propertyLabel: IC50
reading: 24.6 nM

compound: Cc1cc(-c2cnc(Nc3ccnc(-c4cnn(S(=O)(=O)C5CC5)c4)n3)cc2N[C@H]2CC[C@@H](CO)CC2)nn1C [Example 280]
propertyLabel: IC50
reading: 0.2 nM

compound: Cn1ccc(-c2cnc(Nc3ccnc(-c4cnn(S(=O)(=O)C5CC5)c4)n3)cc2NCC2CCC(NCCF)CC2)n1 (stereo not drawn) [Example 131]
propertyLabel: IC50
reading: 0.2 nM

compound: O=S(=O)(C1CC1)n1cc(-c2nccc(Nc3cc(OC4CCC(O)CC4)c(-c4ccn(C(F)F)n4)cn3)n2)cn1 (stereo not drawn) [Example 66]
propertyLabel: IC50
reading: 7.7 nM

compound: OCC[C@H]1CC[C@@H](Nc2cc(Nc3ccnc(-c4cnn(CC(F)F)c4)n3)ncc2-c2ccn(C(F)F)n2)CC1 [Example 146]
propertyLabel: IC50
reading: 10.8 nM

compound: Cn1nc(-c2cnc(Nc3ccnc(-c4cnn(S(=O)(=O)C5CC5)c4)n3)cc2N[C@H]2CC[C@@H](NCCF)CC2)cc1C(F)(F)F [Example 255]
propertyLabel: IC50
reading: 1.1 nM

* * *

IC50 values, listed per item
- tgt: EGFR wildtype (WT) (Homo sapiens)
- testProtocol: Biochemical EGFR kinase assay (Lance Ultra TR-FRET), wildtype
- appliedConditions: Km ATP; read-out: IC50 WT (nM) Km ATP

molecule: O=S(=O)(C1CC1)n1cc(-c2nccc(Nc3cc(NC4CC5(CC(O)C5)C4)c(-c4ccn(C(F)F)n4)cn3)n2)cn1 (stereo not shown) [Example 103]
IC50 (nM): 58.2

molecule: O=S(=O)(C1CC1)n1cc(-c2nccc(Nc3cc(NCC4CCCC(O)C4)c(-c4ccn(C(F)F)n4)cn3)n2)cn1 (stereo not shown) [Example 32]
IC50 (nM): 18.5

molecule: Cc1cc(-c2cnc(Nc3ccnc(-c4cnn(S(=O)(=O)C5CC5)c4)n3)cc2N[C@H]2CC[C@@H](C(C)(C)O)CC2)nn1C [Example 281]
IC50 (nM): 2.9

molecule: CN(CC(F)F)C(=O)[C@H]1CC[C@@H](Nc2cc(Nc3ccnc(-c4cnn(S(=O)(=O)C5CC5)c4)n3)ncc2-c2ccn(C(F)F)n2)CC1 [Example 204]
IC50 (nM): 9.5

molecule: CCOC(=O)c1ccn(-c2cnc(Nc3ccnc(-c4cnn(S(=O)(=O)C5CC5)c4)n3)cc2N[C@H]2CC[C@@](C)(O)CC2)n1 [Example 102]
IC50 (nM): 183

molecule: CC(C)(O)[C@H]1CC[C@@H](Nc2cc(Nc3ccnc(-c4cnn(S(=O)(=O)C5CC5)c4)n3)ncc2-c2cc3n(n2)CCCC3)CC1 [Example 61]
IC50 (nM): 7.9

molecule: O=S(=O)(C1CC1)n1cc(-c2nccc(Nc3cc(N[C@H]4CC[C@](O)(CO)CC4)c(-c4csc(N5CCOCC5)n4)cn3)n2)cn1 [Example 125]
IC50 (nM): 144

molecule: C[C@]1(O)CC[C@@H](Nc2cc(Nc3ccnc(-c4cnn(CC(F)F)c4)n3)ncc2-c2ccn(C(F)F)n2)CC1 [Example 143]
IC50 (nM): 62.7

molecule: Cn1ccc(-c2cnc(Nc3ccnc(-c4cnn(S(=O)(=O)C5CC5)c4)n3)cc2N[C@H]2CC[C@]3(CCC(=O)N3)CC2)n1 [Example 44]
IC50 (nM): 1

molecule: Cc1ccn(-c2cnc(Nc3ccnc(-c4cnn(S(=O)(=O)C5CC5)c4)n3)cc2N[C@H]2CC[C@@](C)(O)CC2)n1 [Example 168]
IC50 (nM): 26.9

molecule: O=S(=O)(C1CC1)n1cc(-c2nccc(Nc3cc(N[C@H]4CC[C@@H](CO)CC4)c(-c4ccn(CC(F)F)n4)cn3)n2)cn1 [Example 244]
IC50 (nM): 2.3

molecule: O=S(=O)(C1CC1)n1cc(-c2nccc(Nc3cc(NC4CCN(CC(F)F)CC4)c(-c4ccn(C(F)F)n4)cn3)n2)cn1 [Example 219]
IC50 (nM): 8630

molecule: O=S(=O)(C1CC1)n1cc(-c2nccc(Nc3cc(OC4CCC(O)C4)c(-c4ccn(C(F)F)n4)cn3)n2)cn1 (stereo not shown) [Example 67]
IC50 (nM): 336

* * *

- tgt: EGFR L858R/C797S (Homo sapiens, UniProt P00533, C797S/L858R)
- Sequence (P00533 25-1210 C797S/L858R): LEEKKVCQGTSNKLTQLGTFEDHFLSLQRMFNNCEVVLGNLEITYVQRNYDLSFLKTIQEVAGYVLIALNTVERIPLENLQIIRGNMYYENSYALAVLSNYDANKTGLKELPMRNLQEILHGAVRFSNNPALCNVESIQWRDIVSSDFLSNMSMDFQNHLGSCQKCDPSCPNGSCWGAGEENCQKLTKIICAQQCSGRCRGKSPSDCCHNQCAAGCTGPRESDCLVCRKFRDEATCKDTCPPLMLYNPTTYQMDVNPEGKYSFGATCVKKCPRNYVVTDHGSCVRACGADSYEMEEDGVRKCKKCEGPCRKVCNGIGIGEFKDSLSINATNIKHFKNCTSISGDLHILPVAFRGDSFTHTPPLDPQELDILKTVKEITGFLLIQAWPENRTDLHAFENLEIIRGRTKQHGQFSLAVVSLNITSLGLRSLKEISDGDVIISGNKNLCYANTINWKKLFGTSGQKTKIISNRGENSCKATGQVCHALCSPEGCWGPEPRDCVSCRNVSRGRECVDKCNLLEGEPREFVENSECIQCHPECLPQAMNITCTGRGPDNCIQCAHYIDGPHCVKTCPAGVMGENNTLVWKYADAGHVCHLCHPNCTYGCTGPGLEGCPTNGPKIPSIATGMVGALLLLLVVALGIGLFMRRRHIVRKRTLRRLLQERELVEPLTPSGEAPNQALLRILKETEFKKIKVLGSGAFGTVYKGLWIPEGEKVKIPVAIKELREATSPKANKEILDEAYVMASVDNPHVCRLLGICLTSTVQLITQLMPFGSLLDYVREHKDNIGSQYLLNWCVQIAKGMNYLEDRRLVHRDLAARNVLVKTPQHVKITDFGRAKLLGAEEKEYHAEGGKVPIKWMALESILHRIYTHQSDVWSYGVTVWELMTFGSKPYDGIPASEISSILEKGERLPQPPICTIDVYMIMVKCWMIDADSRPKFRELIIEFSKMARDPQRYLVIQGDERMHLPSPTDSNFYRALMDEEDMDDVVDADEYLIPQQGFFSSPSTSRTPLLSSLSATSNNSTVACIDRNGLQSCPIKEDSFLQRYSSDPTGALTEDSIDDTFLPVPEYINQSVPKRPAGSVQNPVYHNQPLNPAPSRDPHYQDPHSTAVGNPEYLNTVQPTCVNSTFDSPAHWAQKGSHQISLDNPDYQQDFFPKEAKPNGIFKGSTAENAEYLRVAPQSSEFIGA
- testProtocol: Biochemical EGFR kinase assay (Lance Ultra TR-FRET), double mutant L858R/C797S
- appliedConditions: IC50 L858R/C797S (nM) 100 μM ATP, 100 μM ATP
IC50 values, listed per item
propertyLabel: IC50 (nM)

compound: C[C@]1(O)CC[C@@H](Nc2cc(Nc3ccnc(-c4ccc(F)nc4)n3)ncc2-c2ccn(C(F)F)n2)CC1 [Example 113]
resultUnit: nM
reading: 483
//
compound: O=S(=O)(C1CC1)n1cc(-c2nccc(Nc3cc(N[C@H]4CC[C@H](O)C4)c(-c4ccn(C(F)F)n4)cn3)n2)cn1 [Example 20]
resultUnit: nM
reading: 51.9
//
compound: CN(C)C[C@]1(O)CC[C@@H](Nc2cc(Nc3ccnc(-c4cnn(S(=O)(=O)C5CC5)c4)n3)ncc2-c2ccn(C)n2)CC1 [Example 230]
resultUnit: nM
reading: 33.8
//
compound: Cn1nc(-c2cnc(Nc3ccnc(-c4cnn(S(=O)(=O)C5CC5)c4)n3)cc2NC[C@H]2CC[C@@H](O)C2)cc1C(F)(F)F [Example 261]
resultUnit: nM
reading: 22.7
//
compound: CN(C)CCCn1ccc(-c2cnc(Nc3ccnc(-c4cnn(S(=O)(=O)C5CC5)c4)n3)cc2N[C@H]2CC[C@@](C)(O)CC2)n1 [Example 288]
resultUnit: nM
reading: 0.4
//
compound: Cn1ccc(-c2cnc(Nc3ccnc(-c4cnn(S(=O)(=O)C5CC5)c4)n3)cc2NC[C@H]2CC[C@H](NCC(F)F)CC2)n1 [Example 129]
resultUnit: nM
reading: 14.3
//
compound: O=S(=O)(C1CC1)n1cc(-c2nccc(Nc3cc(N[C@H]4CC[C@H](CO)OC4)c(-c4ccn(C(F)F)n4)cn3)n2)cn1 [Example 196]
resultUnit: nM
reading: 9100
//
compound: CN[C@H]1CC[C@@H](Nc2cc(Nc3ccnc(-c4cnn(S(=O)(=O)C5CC5)c4)n3)ncc2-c2csc(C(C)(C)O)n2)CC1 [Example 56]
resultUnit: nM
reading: 7.1
//
compound: Cc1nn(S(=O)(=O)N(C)C)cc1-c1nccc(Nc2cc(N[C@H]3CC[C@@](C)(O)CC3)c(-c3ccn(C(F)F)n3)cn2)n1 [Example 315]
resultUnit: nM
reading: 37.4
//
compound: CN(C)CCCn1ccc(-c2cnc(Nc3ccnc(-c4cnn(S(=O)(=O)C5CC5)c4)n3)cc2N[C@H]2CC[C@@H](NCCF)CC2)n1 [Example 301]
resultUnit: nM
reading: 3.5
//
compound: O=S(=O)(C1CC1)n1cc(-c2nccc(Nc3cc(NC[C@H]4CC[C@H](O)CC4)c(-c4ccn(C(F)F)n4)cn3)n2)cn1 [Example 31]
resultUnit: nM
reading: 18.7
//
compound: CN(C)C[C@H]1CC[C@H](CNc2cc(Nc3ccnc(-c4cnn(S(=O)(=O)C5CC5)c4)n3)ncc2-c2csc(C(F)(F)F)n2)CC1 [Example 101]
resultUnit: nM
reading: 3.8
//
compound: Cn1ccc(-c2cnc(Nc3ccnc(-c4cnn(S(=O)(=O)C5CC5)c4)n3)cc2NC[C@H]2CC[C@](C)(O)CC2)n1 [Example 48]
resultUnit: nM
reading: 6.1
//
compound: O=S(=O)(C1CC1)n1cc(-c2nccc(Nc3cc(NC4CCCC(NCC(F)F)C4)c(-c4ccn(C(F)F)n4)cn3)n2)cn1 (stereo not shown) [Example 191]
resultUnit: nM
reading: 1400
//
compound: O=S(=O)(C1CC1)n1cc(-c2nccc(Nc3cc(N[C@H]4CC[C@@H](O)CC4)c(-c4ccn(C(F)F)n4)cn3)n2)cn1 [Example 80]
resultUnit: nM
reading: 1.4
//
compound: CN[C@H]1CC[C@@H](Oc2cc(Nc3ccnc(-c4cnn(S(=O)(=O)C5CC5)c4)n3)ncc2-c2cnn(C(F)F)c2)CC1 [Example 69]
resultUnit: nM
reading: 257
//
compound: Cn1nc(-c2cnc(Nc3ccnc(-c4cnn(S(=O)(=O)C5CC5)c4)n3)cc2N[C@H]2CC[C@@H](CN3CCC3)CC2)cc1C(F)(F)F [Example 264]
resultUnit: nM
reading: 2.2
//
compound: CN[C@H]1CC[C@@H](Nc2cc(Nc3ccnc(-c4cnn(S(=O)(=O)C5CC5)c4)n3)ncc2-c2ccco2)CC1 [Example 87]
resultUnit: nM
reading: 31.4
//
compound: CN(C)C(=O)[C@H]1CC[C@@H](Nc2cc(Nc3ccnc(-c4cnn(S(=O)(=O)C5CC5)c4)n3)ncc2-c2ccn(C)n2)CC1 [Example 232]
resultUnit: nM
reading: 1.6
//
compound: CN(C)CC1(C)CCC(Nc2cc(Nc3ccnc(-c4cnn(S(=O)(=O)C5CC5)c4)n3)ncc2-c2ccn(C)n2)CC1 (stereo not shown) [Example 238]
resultUnit: nM
reading: 178
//
compound: C[C@]1(O)CC[C@@H](Nc2cc(Nc3ccnc(-c4cnn(S(=O)(=O)C5CC5)c4)n3)ncc2-c2csc(C(F)(F)F)n2)CC1 [Example 51]
resultUnit: nM
reading: 7
//
compound: CN(C)C[C@H]1CC[C@@H](Nc2cc(Nc3ccnc(-c4cnn(S(=O)(=O)C5CC5)c4)n3)ncc2-c2ccn(C(F)F)n2)CC1 [Example 195]
resultUnit: nM
reading: 0.8
//
compound: CN(C)CCCn1ccc(-c2cnc(Nc3ccnc(-c4cnn(S(=O)(=O)C5CC5)c4)n3)cc2NCC2(CO)COC2)n1 [Example 279]
resultUnit: nM
reading: 14.2
//
compound: O=S(=O)(C1CC1)n1cc(-c2nccc(Nc3cc(N[C@H]4CC[C@@H](NCCF)CC4)c(-c4csc(N5CCOCC5)n4)cn3)n2)cn1 [Example 126]
resultUnit: nM
reading: 379
//
compound: CN(CC(F)F)C[C@H]1CC[C@@H](Nc2cc(Nc3ccnc(-c4cnn(S(=O)(=O)C5CC5)c4)n3)ncc2-c2ccn(C)n2)CC1 [Example 237]
resultUnit: nM
reading: 61.4
